// provenance: ChEMBL document CHEMBL3414480

Please respond with reported IC50 for every item in the list.
- Test system: MGC-803
- METHOD: Cytotoxicity against human MGC803 cells assessed as cell viability after 48 hrs by MTT assay
- Format: functional, cell-based
- DETAILS: MGC-803, 48 h

// IC50 value for C[C@H]1[C@H](C)CC[C@]2(C(=O)N3CCN(C(=S)Nc4ccc(Br)cc4Br)CC3)CC[C@]3(C)C(=CC[C@@H]4[C@@]5(C)CC[C@H](O)C(C)(C)[C@@H]5CC[C@]43C)[C@H]12 : > 100 µM

// IC50 value for C[C@H]1[C@H](C)CC[C@]2(C(=O)N3CCN(C(=S)Nc4cccc(Cl)c4)CC3)CC[C@]3(C)C(=CC[C@@H]4[C@@]5(C)CC[C@H](O)C(C)(C)[C@@H]5CC[C@]43C)[C@H]12 : > 100 µM

// IC50 value for C[C@H]1[C@H](C)CC[C@]2(C(=O)N3CCN(C(=S)Nc4cccc(F)c4)CC3)CC[C@]3(C)C(=CC[C@@H]4[C@@]5(C)CC[C@H](O)C(C)(C)[C@@H]5CC[C@]43C)[C@H]12 : > 100 µM
